Test system: ACVRL1
Details: concentration: 1 μM,replicates: in singlicate; n = 1;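 also: KINOMEscan kinase panel screen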
measurement-name: %Inh (%)

- COc1cc2ncn(-c3cc(OCC4CCCCC4)c(C(N)=O)s3)c2cc1OC [GSK204559]: 0
- O=C(Nc1cccc(Oc2ccc3nccn3n2)c1)Nc1cccc(C(F)(F)F)c1: 0
- Cc1nnc(-c2ccc3occ(-c4ccc(S(C)=O)cc4)c3n2)o1 (stereo not drawn): 0
- Cl.Cl.NC[C@H](CC1CCCCC1)NC(=O)c1ccc(-c2ccnc3[nH]ccc23)s1 [GSK1581428]: 0
- Cl.c1ccc(Oc2ccc(Nc3ccnc4cc(-c5ccc(CN6CCNCC6)o5)ccc34)cc2)nc1 [GW567142]: 0
- NC(=O)Nc1sc(-c2ccc(F)cc2)cc1C(N)=O [GW789449]: 0
- Cn1cc(-c2cccc3c(N)c(C(N)=O)nnc23)cn1: 3
- O=C(Nc1ccccc1)c1cccc(Oc2ccc3nccn3n2)c1: 2
- Cl.Nc1n[nH]c2cc(-c3ccccn3)ccc12 [GSK2189892]: 0

====

Test system: EGFR
Details: concentration: 1 μM,replicates: in singlicate; n = 1
Consider the following molecules and their measured %Inh readings.
measurement-name: %Inh

- Cl.c1ccc(Oc2ccc(Nc3ccnc4cc(-c5ccc(CN6CCNCC6)o5)ccc34)cc2)nc1 [GW567142]: 97.7%
- Cn1ccc2ncnc(Oc3ccc(NC(=O)Nc4ccnc(C(F)(F)F)c4)c(Cl)c3)c21: 3%
- NC(=O)c1ccc(-c2cc3ncnc(SCC(=O)O)c3s2)cc1: 0%
- O=C(Nc1ccc(Oc2ccc3nc(NC(=O)C4CC4)cn3n2)c(F)c1)c1cccn(-c2ccccc2)c1=O: 13%

====

Test system: PAK1
Details: concentration: 1 μM,replicates: in singlicate; n = 1
Measured %Inh, listed per entry for reference.
measurement-name: %Inh (%)

* Cc1ccc(C(=O)Nc2ccc(Oc3ccc4nc(NC(=O)C5CC5)cn4c3)c(F)c2)c(=O)n1-c1ccccc1 | 0
* CC(C(=O)NC1CCN(c2ccnc(Nc3ccc(F)cc3)n2)C1)c1ccc(Cl)cc1 (centres unmarked) | 5
* CN(c1ccc2c(c1)nc(NCc1ccc(F)cc1)n2C)c1ccnc(Nc2ccc(CS(C)(=O)=O)cc2)n1.Cl | 10
* COc1cc(Nc2nccc(N3CCC(NC(=O)c4cccc(C#N)c4)C3)n2)cc(OC)c1OC (centres unmarked) | 2
* NC(=O)Nc1sc(-c2ccc(F)cc2)cc1C(N)=O | 0
* Cc1ccc(CC(=O)N2CCc3cc(-c4cn(C)c5ncnc(N)c45)ccc32)cc1 | 0
* Cn1ccc2ncnc(Oc3ccc(NC(=O)Nc4cncc(C(F)(F)F)c4)c(Cl)c3)c21 | 25
* Cc1cccc2c(-c3ccncc3)c(-c3ccc(F)cc3)nn12.Cl | 24
* CCCC(=O)Nc1n[nH]c2ncccc12 | 0
* Cl.Nc1n[nH]c2cc(-c3ccccn3)ccc12 | 9
* CCN1CCN(CCCC(=O)Nc2n[nH]c3nc(-c4ccc(O)cc4)c(Br)cc23)CC1 | 0
* COc1cc2nccc(Nc3ccc(Oc4ccccc4)cc3)c2cc1OC.Cl | 0
* CN(c1ccccc1CNc1nc(Nc2ccc3c(c2)CC(=O)N3)ncc1C(F)(F)F)S(C)(=O)=O | 0
* C[C@@H](Oc1cc(-n2cnc3cc(-c4ccncc4)ccc32)sc1C(N)=O)c1ccccc1Cl | 21
* Cc1nnc(-c2ccc3occ(-c4ccc(S(C)=O)cc4)c3n2)o1 (centres unmarked) | 4
* COC(=O)c1cccc(NC(=O)NC2CCN(c3ccnc(Nc4cc(OC)c(OC)c(OC)c4)n3)C2)c1 (centres unmarked) | 10
* O=c1[nH]cc(-c2ccc(O)cc2)c2sc(-c3ccncc3)cc12 | 14
* CC(C)S(=O)(=O)N1CCN(Cc2ccc3c(c2)nc(NC(=O)c2ccsc2)n3C[C@H](O)c2ccccc2)CC1 | 22
* O=C(NCC1CC1)c1ccc(-c2cc(C(=O)NC3CC3)ccc2F)cc1 | 0
* NC(=O)c1ccc(-c2cc3ncnc(SCC(=O)O)c3s2)cc1 | 0
* Cl.c1ccc(Oc2ccc(Nc3ccnc4cc(-c5ccc(CN6CCNCC6)o5)ccc34)cc2)nc1 | 7
* Cc1ccc2c(-c3ccnc(Nc4ccc(C(F)(F)F)cc4)n3)cnn2n1 | 1
* C[C@@H](Oc1cc(-n2cnc3ccc(-c4ccncc4)cc32)sc1C(N)=O)c1ccccc1Cl | 8
* Cn1ccc2ncnc(Oc3ccc(NC(=O)Nc4ccnc(C(F)(F)F)c4)c(Cl)c3)c21 | 23
* CC(=O)Nc1ccc(-c2cc3ncnc(SCC(=O)O)c3s2)cc1 | 0
* COc1cccc(OC)c1C(=O)Nc1cccc(-c2nn3ccccc3c2-c2ccnc(Nc3cccc(F)c3)n2)c1 | 6
* O=C1NCCc2[nH]c(-c3ccncc3)cc21 | 38
* CS(=O)c1ccc(-c2coc3ccc(-c4n[nH]c(=O)o4)cc23)cc1 (centres unmarked) | 0
* C[C@@H]1CNc2c(sc3ccc4nc(-c5ccncc5)ccc4c23)C(=O)N1 | 0
* C[C@@H]1CNc2c(sc3ccc4nc(-c5ccc(O)cc5)ccc4c23)C(=O)N1 | 20
* O=C(NOCC1CC1)c1cc(Br)c(F)c(F)c1Nc1ccc(I)cc1Cl | 2
* CN1CCN(CCCNc2nccc(-c3c(-c4ccc(F)cc4)nn4cc(C(N)=O)ccc34)n2)CC1 | 26
* CNC(=O)c1ccccc1Nc1nc(Nc2cccc(CS(C)(=O)=O)c2)ncc1C.O=CO | 64
* COc1cc2ncn(-c3cc(OCC4CCCCC4)c(C(N)=O)s3)c2cc1OC | 9
* CSc1nccc(-c2c(-c3ccc(F)cc3)ncn2CCCN2CCOCC2)n1.Cl | 3
